- EXPERIMENTAL TARGET: EthR2 (Rv0078) (Mycobacterium tuberculosis, UniProt O53623)
- Sequence (O53623 entry or part of it): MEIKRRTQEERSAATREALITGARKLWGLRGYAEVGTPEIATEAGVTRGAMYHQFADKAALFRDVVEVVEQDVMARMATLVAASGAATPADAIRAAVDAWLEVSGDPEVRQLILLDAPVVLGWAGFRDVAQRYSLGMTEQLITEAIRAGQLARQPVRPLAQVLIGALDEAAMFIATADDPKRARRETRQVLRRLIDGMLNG
QUANTITY MEASURED: pKd
Quick note: pKd values are minus log10 of concentrations in mol/L.

(Q) API: value(readout=pKd, system=EthR2 (Rv0078) (Mycobacterium tuberculosis, UniProt O53623)) for record Cc1c(CN2CCN(C)CC2)cc(-c2ccc(Cl)cc2)n1-c1ccc(Cl)cc1
(A) 6.18
